# assay overview: Aqueous solubility of the compound at pH 2
# Format: physicochemical
# particulars: buffer

| smiles record | solubility |
| --- | --- |
| C[C@@H]1CCCN1CCc1ccc(-c2ccc(=O)n(-c3ccc(F)cc3)n2)cc1 | > 125 µg/mL |

====

# tested system: Cytochrome P450 2C9 (Homo sapiens)
# Sequence (P11712 whole entry): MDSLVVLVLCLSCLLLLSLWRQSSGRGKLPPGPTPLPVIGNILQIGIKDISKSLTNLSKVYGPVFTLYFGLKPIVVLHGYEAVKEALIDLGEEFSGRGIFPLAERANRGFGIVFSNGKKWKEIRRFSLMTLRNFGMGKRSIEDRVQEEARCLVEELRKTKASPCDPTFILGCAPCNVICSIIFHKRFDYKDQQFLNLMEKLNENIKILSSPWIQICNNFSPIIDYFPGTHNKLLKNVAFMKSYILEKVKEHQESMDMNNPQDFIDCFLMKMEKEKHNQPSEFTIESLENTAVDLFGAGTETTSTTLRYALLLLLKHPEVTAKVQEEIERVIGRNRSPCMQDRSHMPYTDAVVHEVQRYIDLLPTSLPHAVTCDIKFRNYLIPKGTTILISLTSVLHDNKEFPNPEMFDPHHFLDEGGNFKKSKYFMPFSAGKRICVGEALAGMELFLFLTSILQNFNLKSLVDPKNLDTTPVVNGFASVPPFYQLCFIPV

| smiles record | IC50 |
| --- | --- |
| C[C@@H]1CCCN1CCc1ccc(-c2ccc(=O)n(C)n2)cc1 | > 30 µM |

====

Listing of recorded half-life by entry.
# assay overview: Metabolic stability in human liver microsomes assessed as half life
# Format: ADME, Microsome

| smiles record | half-life |
| --- | --- |
| C[C@@H]1CCCN1CCc1ccc(-c2ccc(=O)n(-c3ccc(F)cc3)n2)cc1 | > 40 min |
| C[C@@H]1CCCN1CCc1ccc(-c2ccc(=O)n(C)n2)cc1 | > 40 min |

====

# assay overview: AUC (0 to infinity) in rat at 1 mg/kg, iv
# Type: ADME, organism-based
# Design: time infinity, dose 1 mg/kg, route intravenous
# particulars: plasma
reported property: AUC(0-inf) (ng·h/mL)

| smiles record | data value |
| --- | --- |
| C[C@@H]1CCCN1CCc1ccc(-c2ccc(=O)n(-c3ccc(F)cc3)n2)cc1 | 1300 |
| C[C@@H]1CCCN1CCc1ccc(-c2ccc(=O)n(C)n2)cc1 | 1650 |

====

# tested system: Histamine H3 receptor (Homo sapiens)
# assay overview: Inverse agonist activity at human H3R expressed in CHO cells assessed as inhibition of R-alpha-methylhistamine-induced [35S]GTPgammaS binding
reported property: EC50 (nM)

| smiles record | reported property | value units | data value |
| --- | --- | --- | --- |
| C[C@@H]1CCCN1CCc1ccc(-c2ccc(=O)n(-c3ccc(F)cc3)n2)cc1 | EC50 | nM | 2.1 |
| C[C@@H]1CCCN1CCc1ccc(-c2ccc(=O)n(C)n2)cc1 | EC50 | nM | 2 |

====

# tested system: Cytochrome P450 3A4 (Homo sapiens)
# Sequence (P08684 whole entry): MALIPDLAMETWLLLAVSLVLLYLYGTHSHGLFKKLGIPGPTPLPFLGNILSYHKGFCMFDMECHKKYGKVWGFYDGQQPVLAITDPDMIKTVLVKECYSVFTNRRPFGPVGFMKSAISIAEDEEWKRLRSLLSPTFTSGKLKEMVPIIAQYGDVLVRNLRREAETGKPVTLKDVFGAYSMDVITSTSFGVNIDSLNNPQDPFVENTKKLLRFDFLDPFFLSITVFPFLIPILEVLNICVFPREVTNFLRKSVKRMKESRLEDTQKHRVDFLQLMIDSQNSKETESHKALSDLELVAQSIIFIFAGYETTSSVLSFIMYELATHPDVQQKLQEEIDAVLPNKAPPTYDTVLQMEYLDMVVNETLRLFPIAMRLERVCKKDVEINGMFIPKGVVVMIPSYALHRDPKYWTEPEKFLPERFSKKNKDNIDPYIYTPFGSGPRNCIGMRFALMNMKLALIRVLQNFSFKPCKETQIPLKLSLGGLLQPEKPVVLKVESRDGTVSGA
reported property: IC50

| smiles record | data value |
| --- | --- |
| C[C@@H]1CCCN1CCc1ccc(-c2ccc(=O)n(-c3ccc(F)cc3)n2)cc1 | > 30 µM |

====

Here, each record is paired with measured half-life data.
# assay overview: Half life in rat at 1 mg/kg, iv
# Assay type: ADME, organism-based
# Parameters: dose 1 mg/kg, route intravenous
# particulars: in vivo

| smiles record | half-life |
| --- | --- |
| C[C@@H]1CCCN1CCc1ccc(-c2ccc(=O)n(C)n2)cc1 | 0.5 h |
| C[C@@H]1CCCN1CCc1ccc(-c2ccc(=O)n(-c3ccc(F)cc3)n2)cc1 | 2.3 h |

====

Reported Ki by item:
# tested system: Histamine H3 receptor (Homo sapiens, UniProt Q9Y5N1)
# Sequence (Q9Y5N1 whole entry): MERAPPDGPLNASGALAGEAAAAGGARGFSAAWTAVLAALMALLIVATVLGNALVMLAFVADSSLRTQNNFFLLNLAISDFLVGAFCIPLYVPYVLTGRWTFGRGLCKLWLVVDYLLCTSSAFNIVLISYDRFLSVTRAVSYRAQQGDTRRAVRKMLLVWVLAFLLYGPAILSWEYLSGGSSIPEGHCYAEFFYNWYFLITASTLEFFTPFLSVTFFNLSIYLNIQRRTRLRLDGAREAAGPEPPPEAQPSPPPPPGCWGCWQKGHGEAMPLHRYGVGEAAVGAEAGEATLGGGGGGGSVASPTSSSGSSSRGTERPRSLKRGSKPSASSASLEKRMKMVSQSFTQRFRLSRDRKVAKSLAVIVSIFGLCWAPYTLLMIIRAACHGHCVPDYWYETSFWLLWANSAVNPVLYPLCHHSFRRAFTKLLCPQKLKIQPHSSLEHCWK

| smiles record | Ki (nM) |
| --- | --- |
| C[C@@H]1CCCN1CCc1ccc(-c2ccc(=O)[nH]n2)cc1 | 31 |
| C[C@@H]1CCCN1CCc1ccc(-c2ccc(=O)n(C)n2)cc1 | 7 |
| C[C@@H]1CCCN1CCc1ccc(-c2ccc(=O)n(Cc3ccccc3)n2)cc1 | 5 |
| C[C@@H]1CCCN1CCc1ccc(-c2ccc(=O)n(-c3ccccn3)n2)cc1 | 47 |

====

compounds and their reported Kp at 1 h
# assay overview: Ratio of drug level from brain to plasma of rat at 10 mg/kg, ip after 1 hr
# Type: ADME, organism-based
# Set-up: dose 10 mg/kg, route intraperitoneal
# particulars: read-out: BPR

| smiles record | Kp at 1 h |
| --- | --- |
| C[C@@H]1CCCN1CCc1ccc(-c2ccc(=O)n(-c3ccc(F)cc3)n2)cc1 | 11 |
| C[C@@H]1CCCN1CCc1ccc(-c2ccc(=O)n(C)n2)cc1 | 6 |
